For each record, write down the corresponding TGI.
tested on: HL-60(TB) leukemia; experiment: NCI tumour cell line growth inhibition, 48 h

Please review the entries below; each comes with its answer.
INSERT INTO results (compound, result) VALUES
  ('COc1ccccc1Nc1nc(N)nc(N)c1N', '85 µM'),
  ('CCOc1cc(NC(C)=O)ccc1C(=O)NN1C(=O)/C(=C/c2ccc(Cl)cc2)N=C1c1ccccc1', '89.6 µM'),
  ('CCOc1ccc(-c2nc3ccc(-c4nc5ccc(N6CCN(C)CC6)cc5[nH]4)cc3[nH]2)cc1OCC', '4.7 µM');

Okay, here is my list. What is TGI for each of these?
1. CS(=O)c1cc(=O)c2ccccc2s1 (stereo unspecified)
2. O=C1C(=C2C(=O)c3ccccc3[N+]2=O)N([O-])c2ccccc21
3. COC(=O)c1nc2n(n1)-c1ccccc1C(=O)N(Cc1ccccc1)C2
4. Cc1cc(Br)ccc1N=NC1C(=O)ON=C1c1ccccc1 (stereo unspecified)

A)
1: 4.63 µM; 2: 48.5 µM; 3: > 100 µM; 4: > 100 µM
